Assay: Pharmacokinetic study in rats after oral administration of cinobufacini capsule (UPLC-MS/MS of plasma)
Type: in vivo, rat
Conditions: male, Sprague-Dawley, in vivo; rat plasma, oral cinobufacini capsule 0.9 g/kg (low), mean ± SD, n = 6
experimental.endpoint: AUC(0-t) (ng·h/mL)
Please reply with the bare figure in ng·h/mL and do not write the unit itself.

Illustrative cases are given below, each with its answer.
| line.notation | measure.unit | AUC(0-t) |
| --- | --- | --- |
| C[C@]12CC[C@H](O)C[C@H]1CC[C@@H]1[C@@H]2[C@H](O)C(=O)[C@]2(C)[C@@H](c3ccc(=O)oc3)CC[C@]12O | ng·h/mL | 15.5 |
| C[C@]12CC[C@H](O)C[C@H]1CC[C@@H]1[C@@H]2[C@H](O)C[C@]2(C)[C@@H](c3ccc(=O)oc3)CC[C@]12O | ng·h/mL | 10.8 |

Ask: Give the measured AUC(0-t) for `C[C@]12CC[C@H](O)C[C@H]1CC[C@@H]1[C@@H]2C(=O)[C@@H](O)[C@]2(C)[C@@H](c3ccc(=O)oc3)CC[C@]12O`
Result: 13.3
